Assay: Cytotoxicity against human CEM cells assessed as reduction in cell viability
Format: toxicity, cell-based, CCRF-CEM
Conditions: CEM (CCRF-CEM) cells
OUTCOME_MEASURE: CC50

CC(C)(C)[C@H](NC(=O)C(F)(F)F)C(=O)N1C[C@H]2[C@@H]([C@H]1C(=O)N[C@H](C#N)C[C@@H]1CCNC1=O)C2(C)C
> 100 µM

====

System: SARS-CoV-2
Experiment: Antiviral activity against SARS-CoV-2 infected in Vero cells assessed as reduction in viral yield measured after 48 hrs by qRT-PCR analysis
Assay type: functional, organism-based
Conditions: Severe acute respiratory syndrome coronavirus 2, Vero, 48 h
pEC50: −log10 of the molar value.
A collection of compounds and their measured pEC50
OUTCOME_MEASURE: pEC50

CC(C)C[C@H](NC(=O)[C@H](Cc1cccc2ccccc12)NC(=O)OCc1ccccc1)C(=O)N[C@H](C=O)C[C@@H]1CCCNC1=O
5.59
Cc1cc(C(=O)N[C@@H](Cc2cccc3ccccc23)C(=O)N[C@@H](CC(C)C)C(=O)N[C@@H](C[C@@H]2CCCNC2=O)C(O)C(=O)NC2CC2)no1 (stereo partly specified)
< 5.00
CC(C)C[C@H](NC(=O)[C@H](Cc1cccc2ccccc12)NC(=O)OCc1ccccc1)C(=O)N[C@H](/C=C(\C#N)C(N)=O)C[C@@H]1CCCNC1=O
< 5.00
CC(C)C[C@H](NC(=O)[C@H](Cc1ccc(O)cc1)NC(=O)OCc1ccccc1)C(=O)N[C@H](C=O)C[C@@H]1CCCNC1=O
< 5.00
CCOC(=O)/C=C/[C@H](C[C@@H]1CCCNC1=O)NC(=O)[C@H](CC(C)C)NC(=O)[C@H](Cc1cccc2ccccc12)NC(=O)c1cc(C)on1
< 5.00
Cc1ccsc1C(=O)N[C@@H](Cc1cccc2ccccc12)C(=O)N[C@@H](CC(C)C)C(=O)N[C@H](C=O)C[C@@H]1CCCNC1=O
5.66

Measured values drawn from ChEMBL document CHEMBL5505997 for this set.
